Reference source: paper PMC9352680

Reported Kd values for a set of binders
Target: T1, PUF4 RNA-binding domain (Saccharomyces cerevisiae, UniProt P25339 537-888)
T1 sequence: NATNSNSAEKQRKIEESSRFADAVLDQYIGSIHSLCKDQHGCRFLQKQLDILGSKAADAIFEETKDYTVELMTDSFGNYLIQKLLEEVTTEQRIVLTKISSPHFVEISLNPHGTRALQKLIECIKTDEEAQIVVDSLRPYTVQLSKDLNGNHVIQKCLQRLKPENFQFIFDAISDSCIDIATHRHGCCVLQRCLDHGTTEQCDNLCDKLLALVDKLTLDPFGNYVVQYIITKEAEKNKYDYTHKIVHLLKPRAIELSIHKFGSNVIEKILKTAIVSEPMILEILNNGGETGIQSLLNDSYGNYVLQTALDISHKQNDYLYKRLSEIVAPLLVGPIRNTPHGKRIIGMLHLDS
Assay: Mg; RNA-MaP; 20 mM Na-HEPES pH 7.4, 30 mM KOAc, 0.75 mM MgCl2, 0.1% Tween-20, 5% glycerol, 0.1 mg/mL BSA, 2 mM DTT; 25 C; 0.0125-409.6 nM protein
Conditions: tags: N-His6-TEV cleaved; C-SNAP kept, Cy3B-labelled; label: tethered on chip by stalled RNA polymerase
The answer is to be given in nM; state only the numeric part.

Solved entries (count: 5):
{"columns": ["Binder", "Kd (nM)"],
 "data": [
  ["ACAAACACUAUAUAUAUGACAAAC (ssRNA) [Id_ii_S3_P3E.3_K3.2_C3.2_[C-2A]_[T-1C]_H3.2_A3.1_F3.1_T3.2_[A10G]]", 572],
  ["Id_ii_S2_P5E.2_K5.1_C5.2_[C-2G]_H5.1_A5.1_F5.1_T5.2_[A12T] (ssRNA) RNA: UUUGAUUAAUAUGAUAUCGUUCUUUCUGUUGUAUUAUUAUUUUCUUUCUCGAUAUCAUAUUAAUCUUU", 2.47],
  ["UCUCUUUAUAUUACUAUCUCUU (ssRNA) [Ib_S1_P5E.1_K5.1_C5.1_H5.1_[G2A]_A5.1_F5.1_[T8C]_T5.1]", 728],
  ["Ic_S2_P3E.1_K3.1_C3.1_H3.1_A3.1_F3.1_[T7G]_[A8C]_T3.1 (ssRNA) RNA: UUUGAUUAAUAUGAUAUCGUUCUUUCUUGUAUAGCUUCUUUCUCGAUAUCAUAUUAAUCUUU", 109],
  ["UCUCUUUGUAAAAUUUCUCUU (ssRNA) [Ic_S1_P4E.1_K4.1_C4.1_H4.1_A4.1_[T5A]_[T7A]_F4.1_[A9T]_T4.1]", 33.5]
]}

Task: Reported Kd, binder Id_ii_S2_P3E.2_K3.1_C3.2_[C-2T]_H3.1_A3.1_F3.1_T3.2_[T9A]_[A10T] (ssRNA) RNA: UUUGAUUAAUAUGAUAUCGUUCUUUCUUUUGUAUAUAAUUUCUUUCUCGAUAUCAUAUUAAUCUUU : ____
Output: 4.47

Task: Field entry: Ia_S4_P5E.1_K5.1_C5.1_H5.1_A5.1_F5.1_[T8A]_T5.1 (ssRNA) RNA: UUUGACAACUGAUCGUUCUUUCUUGUAUUAAUAUUCUUUCUCGAUCAGUUGUCUUU
Output: 6.15

Task: Also check Ic_S2_P3E.1_K3.1_C3.1_H3.1_A3.1_[T5C]_[A6T]_F3.1_[T7C]_[A8C]_T3.1 (ssRNA) RNA: UUUGAUUAAUAUGAUAUCGUUCUUUCUUGUACUCCUUCUUUCUCGAUAUCAUAUUAAUCUUU
Output: 126
